Reference source: paper PMC6530469

biological target: hA3AR-NanoBit-βarr2 (A3AR-LgBit with SmBit-βarr2) (Homo sapiens); test: cell-based; details: HEK-293T, read-out: Stable A3AR NanoBit® HEK293T cell line^A / Emax (%)
Sequence (P32121 whole entry partner, one chain of several): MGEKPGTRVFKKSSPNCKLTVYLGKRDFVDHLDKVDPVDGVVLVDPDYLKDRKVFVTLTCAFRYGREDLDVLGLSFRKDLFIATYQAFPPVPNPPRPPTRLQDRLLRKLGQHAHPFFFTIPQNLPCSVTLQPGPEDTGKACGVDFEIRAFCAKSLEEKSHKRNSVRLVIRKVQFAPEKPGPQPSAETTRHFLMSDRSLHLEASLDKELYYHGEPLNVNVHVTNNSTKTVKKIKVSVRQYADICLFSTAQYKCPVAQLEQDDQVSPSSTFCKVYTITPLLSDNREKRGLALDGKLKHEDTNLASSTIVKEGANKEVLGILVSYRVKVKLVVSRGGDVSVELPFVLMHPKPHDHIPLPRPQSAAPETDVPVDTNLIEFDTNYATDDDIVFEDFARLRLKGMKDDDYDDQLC
readout: Emax (%)

Would you please look over these solved cases?
**Q:** hA3AR-NanoBit-βarr2 (A3AR-LgBit with SmBit-βarr2) (Homo sapiens) / Emax / CCCNc1nc(C#Cc2ccc(Cl)s2)nc2c1ncn2[C@H]1[C@H](O)[C@H](O)[C@]2(C(=O)NC)C[C@H]12 [MRS7154] : value?
**A:** 94.5

**Q:** hA3AR-NanoBit-βarr2 (A3AR-LgBit with SmBit-βarr2) (Homo sapiens) / Emax / CNC(=O)[C@@]12C[C@@H]1[C@@H](n1cnc3c(NC)nc(C#Cc4ccccc4OC)nc31)[C@H](O)[C@@H]2O [MRS5967] : value?
**A:** 92.5

**Q:** hA3AR-NanoBit-βarr2 (A3AR-LgBit with SmBit-βarr2) (Homo sapiens) / Emax / CNC(=O)[C@@]12C[C@@H]1[C@@H](n1cnc3c(NC)nc(C#Cc4ccc(Cl)s4)nc31)[C@H](O)[C@@H]2O [MRS5980] : value?
**A:** 95

**Q:** hA3AR-NanoBit-βarr2 (A3AR-LgBit with SmBit-βarr2) (Homo sapiens) / Emax / CNC(=O)[C@@]12C[C@@H]1[C@@H](n1cnc3c(NCc4cccc(Cl)c4)nc(C#Cc4ccc(-c5ccccc5)cc4)nc31)[C@H](O)[C@@H]2O [MRS5679] : value?
**A:** 46.8

(I) OC[C@H]1O[C@@H](n2cnc3c(NCc4ccccc4)ncnc32)[C@H](O)[C@@H]1O [N^6-benzyl-adenosine]
(II) CCOC(=O)[C@@]12C[C@@H]1[C@@H](n1cnc3c(NC)nc(C#Cc4ccc(Cl)s4)nc31)[C@H](O)[C@@H]2O [MRS7232]
**Q:** Which value of Emax is greater, the one for I or the one for II ? Select an item and report its label.
**A:** I
(I: 34.9%, II: 13.6%)

----------
Target protein (sequence): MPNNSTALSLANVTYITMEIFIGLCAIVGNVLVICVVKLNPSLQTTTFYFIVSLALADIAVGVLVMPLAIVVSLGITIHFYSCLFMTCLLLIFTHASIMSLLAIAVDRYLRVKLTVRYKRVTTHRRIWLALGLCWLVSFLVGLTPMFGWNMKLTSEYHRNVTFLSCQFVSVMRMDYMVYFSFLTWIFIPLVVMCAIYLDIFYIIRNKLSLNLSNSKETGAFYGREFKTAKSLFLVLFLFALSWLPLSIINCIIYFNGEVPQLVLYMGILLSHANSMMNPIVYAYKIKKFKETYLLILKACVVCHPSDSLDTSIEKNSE
readout: Ki (nM)

**Q:** Fill in the blank: the reported Ki of OC[C@H]1O[C@@H](n2cnc3c(Nc4ccccc4)ncnc32)[C@H](O)[C@@H]1O is ____.
**A:** 14.9

(1) NCCNC(=O)Cc1ccc(NC(=O)Cc2ccc(Nc3ncnc4c3ncn4[C@@H]3O[C@H](CO)[C@@H](O)[C@H]3O)cc2)cc1
(2) CCOC(=O)[C@@]12C[C@@H]1[C@@H](n1cnc3c(NC)nc(C#Cc4ccc(Cl)s4)nc31)[C@H](O)[C@@H]2O
(3) CNC(=O)[C@@]12C[C@@H]1[C@@H](n1cnc3c(NC)nc(C#Cc4ccc(Cl)s4)cc31)[C@H](O)[C@@H]2O
(4) OC[C@H]1O[C@@H](n2cnc3c(NC4CCCC4)cc(Cl)nc32)[C@H](O)[C@@H]1O
**Q:** Highest Ki first, then in falling order down to the smallest. Present the labels in the sequence the task asks for.
**A:** 4, 1, 2, 3
